Tested on: CCRIS mutagenicity, Ames/micronucleus/aberration tests
Test: CCRIS mutagenicity studies
Details: Test System: AMES SALMONELLA TYPHIMURIUM; Strain/Indicator: TA2638; Metabolic Activation: NONE; Method: PREINCUBATION
The source made the active and inactive calls. How the calls were made is not given here.

chemical_string: CC(=O)N[C@@H](CS/C(Cl)=C/Cl)C(=O)O
mutagenic call: active; positive
--
chemical_string: CN(C)N=O
mutagenic call: active; positive
--
chemical_string: N[C@@H](CCC(=O)N[C@@H](CS/C(Cl)=C\Cl)C(=O)NCC(=O)O)C(=O)O
mutagenic call: active; positive

* * *

System: CCRIS mutagenicity, Ames/micronucleus/aberration tests
Test: CCRIS mutagenicity studies
Conditions: Test System: AMES SALMONELLA TYPHIMURIUM; Strain/Indicator: TA1537; Metabolic Activation: HAMSTER, LIVER, S-9, AROCLOR 1254 (10%); Method: PREINCUBATION
From the text: The CCRIS database contains chemical records with carcinogenicity, mutagenicity, tumor promotion, and tumor inhibition test results. It was developed by the National Cancer Institute (NCI). Data are derived from studies cited in primary journals, current awareness tools, NCI reports, and other sources. Test results have been reviewed by experts in carcinogenesis and mutagenesis. CCRIS provides historical information from the years 1985 - 2011. It is no longer updated. […]
Calls of active or inactive are those of the source. How the calls were made is not given here.
Outcome codes: active, inactive

chemical_string: O=[N+]([O-])c1cc([As](=O)(O)O)ccc1O
qualitative_label: inactive

chemical_string: COc1cc(-c2ccc(N/N=C3\C(=O)c4c(O)cc(S(=O)(=O)O)cc4C=C3S(=O)(=O)O)c(OC)c2)ccc1N/N=C1\C(=O)c2c(O)cc(S(=O)(=O)O)cc2C=C1S(=O)(=O)O
qualitative_label: inactive

chemical_string: CC(C)=CCl
qualitative_label: inactive

chemical_string: C1CCC(NC2CCCCC2)CC1
qualitative_label: inactive

chemical_string: N#CCBr
qualitative_label: inactive

chemical_string: O=C(Nc1cccc2c(=O)c3c(ccc4c5cc(NC(=O)c6ccccc6)c6c(=O)c7ccccc7c(=O)c6c5[nH]c43)c(=O)c12)c1ccccc1
qualitative_label: inactive

chemical_string: Nc1c(Br)cc([N+](=O)[O-])cc1[N+](=O)[O-]
qualitative_label: active

chemical_string: C=C(C)C(=O)OCC
qualitative_label: inactive

chemical_string: FC(Cl)(Cl)Cl
qualitative_label: inactive

chemical_string: O=c1[nH]c(=O)n(Cl)c(=O)n1Cl
qualitative_label: inactive

chemical_string: OCCN1CN(CCO)CN(CCO)C1
qualitative_label: inactive

chemical_string: O=C1CSC(=S)N1
qualitative_label: inactive

* * *

Test system: CCRIS mutagenicity, Ames/micronucleus/aberration tests
Assay: CCRIS mutagenicity studies
Settings: Test System: E. coli; Strain/Indicator: WP2uvrA/pKM101; Metabolic Activation: None; Method: Preincubation
Text: The CCRIS database contains chemical records with carcinogenicity, mutagenicity, tumor promotion, and tumor inhibition test results. It was developed by the National Cancer Institute (NCI). Data are derived from studies cited in primary journals, current awareness tools, NCI reports, and other sources. Test results have been reviewed by experts in carcinogenesis and mutagenesis. CCRIS provides historical information from the years 1985 - 2011. It is no longer updated. […]
Calls of active or inactive are those of the source. How the calls were made is not given here.
Outcome codes: TRUE for active, FALSE for inactive

compound: CC(C)C#N
qualitative_label: TRUE
//
compound: O=[N+]([O-])c1ccc(Cl)cc1
qualitative_label: FALSE
//
compound: CC(C)CCCC(C)CCCC(C)CCCCC(C)CCCC(C)CCCC(C)C (stereo unspecified)
qualitative_label: FALSE
//
compound: Nc1ccc(I)cc1Cl
qualitative_label: FALSE
//
compound: C=Cc1ccc(S(=O)(=O)O)cc1
qualitative_label: FALSE
//
compound: CC(O)CC(C)(C)O (stereo unspecified)
qualitative_label: FALSE
